Origin of values: patent US8026218

Molecular target: human δ opioid receptor (human, UniProt P41143 1-372)
Sequence (P41143 whole entry, stated change not applied): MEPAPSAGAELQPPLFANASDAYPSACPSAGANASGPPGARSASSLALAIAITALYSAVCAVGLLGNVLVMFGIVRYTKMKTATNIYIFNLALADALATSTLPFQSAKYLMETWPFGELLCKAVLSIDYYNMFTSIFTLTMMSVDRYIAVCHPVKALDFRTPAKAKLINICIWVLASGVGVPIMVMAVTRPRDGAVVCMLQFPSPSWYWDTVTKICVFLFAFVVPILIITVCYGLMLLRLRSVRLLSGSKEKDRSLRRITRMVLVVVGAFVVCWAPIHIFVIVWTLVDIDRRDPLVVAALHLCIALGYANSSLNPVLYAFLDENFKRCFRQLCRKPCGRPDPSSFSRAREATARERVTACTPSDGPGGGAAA
Experiment: cell-based or functional assay
Square brackets hold non-standard residues; d marks the D form. Ends that are not written are not given here. * marks the point of attachment. NH(3,5-(CF3)2-benzyl) = FC(F)(F)c1cc(CN*)cc(C(F)(F)F)c1; NMeBn(3,5-(CF3)2) = CN(Cc1cc(C(F)(F)F)cc(C(F)(F)F)c1)*; OBzl(3,5-(CF3)2) = FC(F)(F)c1cc(CO*)cc(C(F)(F)F)c1; OBn = c1ccc(CO*)cc1
Quick reference: GTP binding hDOR Emax of the listed items.
Please answer using the number first and the unit second.

Y[dA]GFLPLW-{OBzl(3,5-(CF3)2)} [TyrDAlaGlyPheLeuProLeuTrpOBn(CF3)2 (TY004)]; 42.5%
Y[dA]GFFPLW-OBn [TyrDAlaGlyPhePheProLeuTrpOBn (TY014)]; 137%
Y[dA]GFFPLW-{NMeBn(3,5-(CF3)2)} [TyrDAlaGlyPhePheProLeuTrpNMeBn(CF3)2 (TY017)]; 125%
Y[dA]GFSPLW-{NH(3,5-(CF3)2-benzyl)} (not fully specified (residue 5); printed as TyrDAlaGlyPheSer(OGlu)ProLeuTrpNHBn(CF3)2) [TyrDAlaGlyPheSer(OGlu)ProLeuTrpNHBn(CF3)2 (TY042)]; 47%
Y[dA]GFGPLW-{OBzl(3,5-(CF3)2)} [TyrDAlaGlyPheGlyProLeuTrpOBn(CF3)2 (TY006)]; 33.6%

Summary for this binder, Y[dA]GF[dF]PLW-{OBzl(3,5-(CF3)2)} [TyrDAlaGlyPheDPheProLeuTrpOBn(CF3)2 (TY007)] : GTP binding hDOR Emax is 22.9%
